IC50 by entry:
Target: PI3K γ (p110γ) (Homo sapiens)
Construct: purchased Upstate / Millipore Corporation
Sequence (P48736 whole entry): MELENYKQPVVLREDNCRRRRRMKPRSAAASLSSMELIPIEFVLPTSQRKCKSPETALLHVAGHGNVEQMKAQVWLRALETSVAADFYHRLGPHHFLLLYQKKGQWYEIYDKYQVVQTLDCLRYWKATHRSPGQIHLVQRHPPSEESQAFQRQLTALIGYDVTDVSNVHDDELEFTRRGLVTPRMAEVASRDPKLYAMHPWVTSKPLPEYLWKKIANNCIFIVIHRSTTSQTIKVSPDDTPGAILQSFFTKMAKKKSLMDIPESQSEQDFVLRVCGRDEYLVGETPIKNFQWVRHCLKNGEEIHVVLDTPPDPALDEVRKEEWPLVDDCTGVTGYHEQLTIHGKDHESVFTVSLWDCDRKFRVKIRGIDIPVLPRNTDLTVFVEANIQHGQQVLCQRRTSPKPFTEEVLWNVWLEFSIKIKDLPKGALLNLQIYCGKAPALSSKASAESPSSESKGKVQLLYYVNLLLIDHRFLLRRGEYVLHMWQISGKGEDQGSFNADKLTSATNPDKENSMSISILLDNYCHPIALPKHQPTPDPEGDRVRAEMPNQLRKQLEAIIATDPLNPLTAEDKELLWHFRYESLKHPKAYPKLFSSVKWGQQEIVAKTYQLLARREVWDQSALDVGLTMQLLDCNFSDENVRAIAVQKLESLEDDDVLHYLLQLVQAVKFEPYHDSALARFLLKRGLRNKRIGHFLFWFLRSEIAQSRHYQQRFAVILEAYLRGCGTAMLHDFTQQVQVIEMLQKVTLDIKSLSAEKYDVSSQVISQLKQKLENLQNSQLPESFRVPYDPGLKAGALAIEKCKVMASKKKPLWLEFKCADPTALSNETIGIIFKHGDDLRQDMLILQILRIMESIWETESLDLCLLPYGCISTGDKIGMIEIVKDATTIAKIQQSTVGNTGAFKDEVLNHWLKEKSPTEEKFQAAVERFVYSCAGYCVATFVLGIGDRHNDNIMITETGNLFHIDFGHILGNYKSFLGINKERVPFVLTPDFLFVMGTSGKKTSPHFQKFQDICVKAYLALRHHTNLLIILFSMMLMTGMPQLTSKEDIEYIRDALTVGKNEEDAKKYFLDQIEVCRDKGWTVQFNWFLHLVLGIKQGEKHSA
Assay: PI 3-Kinase (human) HTRF assay, PI3K γ
Format: biochemical
Conditions: read-out: PI3K γ IC50
measured.quantity: IC50

• CN1CCN(C(=O)C2CN(c3cnc4ccc(-c5ccc6oc(N)nc6c5)cc4n3)C2)CC1 [Compound 253] = < 10000 nM
• Nc1nc2cc(-c3ccn4ncc(-c5ccncc5)c4c3)ccc2o1 = < 100 nM
• O=C(c1cnc2ccc(-c3cnc(Cl)c(NS(=O)(=O)c4cccc(F)c4)c3)cn12)N1CCOCC1 = < 100 nM
• Nc1nc2cc(-c3ccc4ncc(C(=O)N5CC(O)C5)n4c3)ccc2o1 = < 100 nM
• Nc1nc2cc(-c3ccc4ncc(-c5ccccc5)nc4c3)ccc2o1 = > 10000 nM
• CN1CCN(S(=O)(=O)c2cnc3ccc(-c4ccc5oc(N)nc5c4)cn23)CC1 = > 10000 nM
• C[C@H]1CN(c2cnc3ccc(-c4ccc5sc(N)nc5c4)cc3n2)CCN1 = > 10000 nM
• Nc1nc2cc(-c3ccc4nccc(N5CCOCC5)c4c3)ccc2o1 = < 100 nM
• CN(C)CC(=O)N1CCN(c2cnc3ccc(-c4ccc5oc(N)nc5c4)cc3n2)CC1 [Compound 139] = < 1000 nM
• Nc1nc2cc(-c3ccc4ncc(N5CCN(C(=O)C6(N)CC6)CC5)nc4c3)ccc2o1 = < 10000 nM
• COc1ncc(-c2ccc3ncn(C4CCN(C(C)C)CC4)c(=O)c3c2)cc1NS(=O)(=O)c1ccccc1 = < 100 nM
• Cc1ccn(C2CCN(c3cnc4ccc(-c5ccc6oc(N)nc6c5)cc4n3)CC2)n1 = < 1000 nM
• Nc1nc2cc(-c3ccc4ncc(N5CCNC(=O)C5)nc4c3)ccc2o1 = < 1000 nM
• Nc1nc2ccc(-c3cc(F)c4ncc(C(=O)N5CCOCC5)n4c3)cc2o1 = > 10000 nM
• CC(=O)Nc1nc(C)c(-c2ccc3oc(N)nc3c2)s1 = < 100 nM
• Nc1nc2cc(-c3ccc4ncc(C(=O)N5CCOCC5)n4n3)ccc2o1 = < 1000 nM
• Nc1nc2cc(-c3ccc4ncc(N5CC(N6CC[C@@H](O)C6)C5)nc4c3)ccc2o1 = < 10000 nM
• CNc1noc2cc(-c3ccc4ncc(C(=O)N5CCOCC5)n4c3)ccc12 = < 10000 nM
• CN1CCN(c2nnc3ccc(-c4ccc5nc(N)oc5c4)cn23)CC1 = > 10000 nM
• CC(=O)Nc1nc2cc(-c3ccc4oc(N)nc4c3)ccc2s1 = < 100 nM
• CN(C)CC(=O)N1CCN(c2cnc3ccc(-c4ccc5oc(N)nc5c4)cc3n2)CC1 [Compound 217] = < 1000 nM
• Cc1cc(-c2ccc3nc(N)oc3c2)cn2c(N3CCN(C)CC3)nnc12 = > 10000 nM
• CN1CCN(c2ccnc3ccc(-c4ccc5oc(N)nc5c4)cc23)CC1 = < 10000 nM
• Nc1nc2cc(-c3ccc4nccc(-c5cccnc5)c4c3)ccc2o1 = < 100 nM
• Nc1nsc2c(-c3ccc4ncc(C(=O)N5CCOCC5)n4c3)cccc12 = > 10000 nM
• COc1ncc(-c2ccc3ncc(C(=O)N4CCOCC4)n3c2)cc1NS(=O)(=O)c1ccc(F)cc1 = < 100 nM
• CCN1CCC(n2cnc3ccc(-c4ccc5oc(N)nc5c4)cc3c2=O)CC1 = > 10000 nM
• Nc1nc2cc(-c3ccc4nccc(-c5ccncc5)c4c3)ccc2s1 = < 100 nM
• CN1CCN(C(=O)c2cnc3ccc(-c4ccc5oc(N)nc5c4)cc3n2)CC1 = > 10000 nM
• Nc1nc2cc(-c3ccc4ncc(N5CCNCC5=O)nc4c3)ccc2o1 = < 10000 nM
• Nc1nc2ccc(-c3ccc4nc(N)sc4c3)cc2o1 = < 100 nM
• CC(C)N1CCC(n2cnc3ccc(-c4cncc(NS(=O)(=O)c5ccc(F)cc5F)c4)cc3c2=O)CC1 = < 1000 nM
• CC(C)n1cnc2ccc(-c3ccc4oc(N)nc4c3)cc2c1=O = < 1000 nM
• CNC(=O)CN1CCN(c2cnc3ccc(-c4ccc5oc(N)nc5c4)cc3n2)CC1 = > 10000 nM
• Nc1nc2cc(-c3ccc4ncc(C(=O)N5CCC5)n4c3)ccc2o1 = < 100 nM

Values from patent US20150087627A1
